Ref: the Human Domainome abundance scans (Beltran et al. 2025)

B1: Membrane-associated guanylate kinase, WW and PDZ domain-containing protein 1, residues 352 to 401; numbered along this chain, Q96QZ7 (parent)
chain: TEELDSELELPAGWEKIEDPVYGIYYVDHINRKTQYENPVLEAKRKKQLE

Variants of: B1
Assay: abundance fitness (aPCA) (normalised: wild type 0, dead -1); higher = more abundant; growth selection in yeast, the domain comes from the species named
Conditions: Homo sapiens
Catalogue of abundance fitness readings, one per entry.
measure name: abundance fitness

K33V
-0.028
V21C
-0.038
K44E
0.019
P11N
-0.728
R45F
-0.248
I17V
0.072
I30W
-0.431
L41V
0.001
L41K
-0.035
L10E
-0.654
G23A
-1.1
K46S
-0.093
P39L
-0.615
I24T
0.039
K33Y
-0.331
V27Q
-0.227
E7T
0.053
V21L
0.026
V40E
-0.25
E37Q
-0.176
E7Y
-0.399
L41S
-0.011
N38K
-0.444
E42L
-0.231
E15F
-0.764
W14D
-0.539
D28G
-1.07
K33E
-0.488
A43R
-0.11
K44Q
-0.086
L4R
0.103
E50V
-0.332
G23M
-0.9
V40I
-0.197
A12E
0.129
W14S
-0.46
Y26T
-0.457
G23W
-0.8
V27P
-0.394
I24P
-0.057
L49V
-0.138
T1M
-0.074
D5A
0.047
L10T
-0.608
L41Q
0.001
K47M
-0.102
S6H
-0.203
E2P
-0.266
N38D
-0.158
K33G
-0.414
E37T
-0.177
